# test_method_notes: Competitive TR-FRET assay modified for mAbs and Fabs (T0, T24, T48)
# Format: binding
# protocol_conditions: 37° C.; IC50 shift at 24 hr relative to T0
readout_label: T24 hr IC50 shift (nM)
Unit nM implied. Number only.

*Q* Sample 26D5-75229-343-A10-mAb: human IgG1f/kappa mAb; VH SEQ ID NO: 52, VL SEQ ID NO: 84 (antibody, V domains shown) VH: EVQLVESGGGLIQPGGSLRLSCAASGFTVSSNAMSWVRQAPGKGLEWVSYIYPGGRTYYADSVKGRFTISRDNSKNTLYLQMNSLRAEDTAVYYCARAGFGGPDYWGQGTLVTVSS VL: DIQMTQSPSSVSASVGDRVTITCRASQGISSNLAWYQQKPGKAPKLLIYAASSLQSGVPSRFSGSGSGTDFTLTISSLQPEDFATYYCQQANQFPLTFGGGTKVEIK — what was its T24 hr IC50 shift?
*A* 1.1
